Assay: ICG leakage measurements / thermal degradation in PBS
Assay type: physicochemical
Settings: ICG solution in PBS; 37° C., free ICG in PBS, calculated
Description: The synthesis of ICG-NACs with ICG/PAH=0.04 was scaled up by 10 times. […] Because of the long time scale of this study and the sensitivity of ICG to degradation in water, the suspension fluid was not analyzed for released ICG. Instead, the ICG contained within the ICG-NACs was quantified by inducing the disassembly of the ICG-NACs and immediately measuring the ICG concentration. […] The resulting clear solution was then analyzed through UV-vis spectroscopy. […]
Recorded metric: half-life (h)
Numbers only, in h.

Inquiry: Which half-life value belongs to CC1(C)C(/C=C/C=C/C=C/C=C2\N(CCCCS(=O)(=O)O)c3ccc4ccccc4c3C2(C)C)=[N+](CCCCS(=O)(=O)[O-])c2ccc3ccccc3c21 ?
Reply text: 19

FYI, the data here is from patent US8337809B2.
